Test system: SK-MEL-2 melanoma
assay_details: NCI tumour cell line growth inhibition, 48 h
measured_metric: GI50

See these solved cases before continuing.
[
  {
    "compound": "O=[N+]([O-])[O-].O=[N+]([O-])[O-].[Au].[Au].c1ccc([P-]c2ccccc2)cc1.c1ccc([P-]c2ccccc2)cc1",
    "measured_metric": "GI50",
    "recorded_result": "31.1 µM"
  },
  {
    "compound": "O=C(Nc1ccccc1O)c1ccc(CNC(=O)c2sccc2Nc2ccnc(C(F)(F)F)c2)cc1",
    "measured_metric": "GI50",
    "recorded_result": "6.97 µM"
  },
  {
    "compound": "COc1cc(C2=NN(c3ccc(S(N)(=O)=O)cc3)C(c3ccc(Cl)cc3)C2)cc(OC)c1OC (stereo not drawn)",
    "measured_metric": "GI50",
    "recorded_result": "3.35 µM"
  }
]

So for COc1cc(-c2cc(/C=C3\C(=O)Nc4ccccc43)[nH]n2)cc(OC)c1OC , the logged GI50 turned out to be 2.27 µM

So for O=C1C(=O)c2ccccc2C(O)=C1CC=C(Cl)Cl , the logged GI50 turned out to be 22.1 µM
